System: NCI-H460
Assay: NCI tumour cell line growth inhibition, 48 h
The source made the active and inactive calls. Cut-off read from the data, not from the text of the source: active = GI50 up to about 1.1 µM and inactive = higher.
parameter: GI50

The following compounds have reported results that may help.
# compound, parameter, recorded_result
data = [
    ("O=C(c1ccc(O)cc1O)C1C(c2ccc(O)cc2)OC(c2ccc(O)cc2)C1C(=O)c1ccc(O)cc1O (configuration not stated)", "GI50", "42.8 µM (inactive)"),
    ("Cc1ccc([S+]([O-])c2ccccc2[N+](=O)[O-])cc1 (configuration not stated)", "GI50", "79.8 µM (inactive)"),
    ("Cc1cccc(C2NC(=O)c3ccccc3N2)c1 (configuration not stated)", "GI50", "3.3 µM (inactive)"),
    ("ClC1=NN=C(c2c[nH]c3ccccc23)CC1NCc1ccccc1 (configuration not stated)", "GI50", "> 100 µM (inactive)"),
    ("O=Cc1cn(C(=O)c2ccccc2)c2ccccc12", "GI50", "> 100 µM (inactive)"),
    ("Cc1ccc(S(=O)(=O)NC(=O)NCCc2c[nH]cn2)cc1", "GI50", "> 100 µM (inactive)"),
]

Q) Entry C1CSCC2(COC2)CS1 has what GI50?
A) > 100 µM (inactive)
